Answer each item with its documented AC50.
Test system: INS-1E rat beta cells, no cytokines, CellTiter-Glo ATP, 48 h
Experiment: cytokine-free beta-cell viability effect – INS-1E rat cells, ATP luminescence, cherry pick, counter-screen for beta-cell apoptosis protection project, dose response (AID 463229)

Request: Give its AC50 value. Item: CCCCC(=O)NC(c1ccccc1Cl)c1ccc2cccnc2c1O (centres undefined)
Response: 2.09 µM

Request: Param item = COc1cc(SC)ccc1C(=O)Nc1nc2ccccc2[nH]1 ; retrieve measured AC50.
Response: 1.21 µM

Request: Form field: reported AC50 of Cc1[nH]c2ccccc2c1CN1CCC(Cc2ccccc2)CC1
Response: 3.99 µM

Request: Reported AC50 for CCOc1ccccc1NC(=O)C(=O)N/N=C/c1cc(Br)ccc1O : what is it?
Response: 4.36 µM

Request: Need AC50, item COc1ccccc1C(=O)Nc1nc2ccccc2[nH]1
Response: 1.22 µM

Request: What value of AC50 has been recorded for this entry: c1ccc(CN2CCN(Cc3c[nH]c4ccccc34)CC2)cc1
Response: 7.83 µM

Request: Given the compound FC(F)(F)c1ccc(CN2C[C@@H]3C(c4ccc(C(F)(F)F)cc4)C4(c5cccnc5)CC3(C4)[C@H]2c2ccccc2)cc1 (some centres undefined) , what is its reported AC50?
Response: 5.15 µM

Request: Need AC50, item O=C(/C(N=Nc1cccc([N+](=O)[O-])c1)=C(/O)c1ccc(Br)cc1)C(F)(F)F
Response: 6.66 µM

Request: Fill blank: measured AC50 of the compound C/C(=N\NC(=O)c1ccc(Cl)c(Cl)c1)c1ccccn1 is ____.
Response: 0.98 µM

Request: Item under review: COc1cccc(/C=N/Nc2ccnc(=O)[nH]2)c1O . Reported AC50?
Response: 22.7 µM

Request: Recorded AC50 for Cc1ccc2nc(-c3ccccn3)c(NC3CCCC3)n2c1 , please?
Response: 16.6 µM

Request: Any idea what its AC50 is? The compound is Cc1ccc(C2CC(c3ccc(C)cc3)n3nc(N)nc3N2)cc1 (centres undefined)
Response: 17.9 µM

Request: State the recorded AC50 for this entry: COc1ccccc1CNc1ncnc2sccc12
Response: 11.9 µM

Request: Which AC50 reading was recorded for the compound Cc1onc(-c2ccccc2)c1C(=O)NC(=S)NNC(=O)c1ccccc1O ?
Response: 18.4 µM

Request: Record request: AC50 value, item N=c1ccn(CC(=O)c2ccc(-c3ccccc3)cc2)cc1
Response: 1.94 µM

Request: Sample Oc1c(C(Nc2ccccn2)c2ccccn2)ccc2cccnc12 (centres undefined) — what was its AC50?
Response: 6.16 µM

Request: Which AC50 is reported for this compound? C/C(=N\NC(=O)c1ccccc1OCc1ccc(F)cc1)c1ccccn1
Response: 8.35 µM

Request: Which AC50 value is on record for C#Cc1ccc([C@@H]2C=C(C(=O)N3CCN(Cc4ccccc4)CC3)O[C@H](OCCCCO)C2)cc1 ?
Response: 2.13 µM

Request: Which measured AC50 value corresponds to O=C(N/N=C/c1cc(Cl)ccc1O)C(=O)Nc1ccccc1OC(F)(F)C(F)F ?
Response: 8.81 µM

Request: Name the reported AC50 value associated with the compound CC(C)(C)c1nnc(N/N=C/c2cc(Br)ccc2O)n(N)c1=O
Response: 3.97 µM

Request: Would you mind telling me what AC50 value was observed for CC(=O)Nc1ccccc1OCC(=O)c1cc(C)n(Cc2cccs2)c1C ?
Response: 1.01 µM

Request: Reported AC50 for CCOC(=O)c1ccc(-[n+]2c(-c3ccccc3)cc(-c3ccccc3)cc2-c2ccccc2)cc1 : what is it?
Response: 2.27 µM

Request: # AC50 lookup, item CCCCCn1c(=O)c(C(=O)Nc2ncccc2C)c(O)c2ccccc21
Response: 6.75 µM

Request: Consider the compound shown here: CN1/C(=C\C(=O)COC(=O)c2ccc(O)c(O)c2)C(C)(C)c2ccccc21 What is its recorded AC50?
Response: 10.1 µM

Request: So what's the measured AC50 for this one? CC1(C)Cc2c(c(N3CCOCC3)nc3sc4c(NN)ncnc4c23)CS1
Response: 6.38 µM

Request: Return reported AC50; argument: CC(C)CC[n+]1ccn(C2=C([O-])c3ccccc3C(=O)/C2=N\S(=O)(=O)c2ccccc2)c1
Response: 22.9 µM

Request: What measured AC50 goes with c1cnc(N2CCN(Cc3c[nH]c4ccccc34)CC2)nc1 ?
Response: 4.83 µM

Request: So what's the measured AC50 for this one? CCOc1ccc(N=Cc2c(C)[nH]n(-c3nc4ccccc4[nH]3)c2=O)cc1
Response: 2.83 µM

Request: I am curious: what AC50 value has been reported for Nc1ccc2c(c1)C(=O)C(=O)c1ccccc1-2 ?
Response: 1.2 µM

Request: Form field: reported AC50 of CCc1ccc(S(=O)(=O)/N=C2/C=C(Sc3ncn[nH]3)C(=O)c3ccccc32)cc1
Response: 9.6 µM

Request: Looking for the measured AC50 of Cc1cc(N/N=C/c2ccc(O)cc2O)nc(-c2ccccc2O)n1 , can you help?
Response: 7.47 µM

Request: Item under review: CC(=O)NC(c1cccs1)c1cc(F)c2cccnc2c1O (centres undefined) . Reported AC50?
Response: 6.05 µM

Request: Bench note: what AC50 did Cc1cc(C)n(-c2nc(NCCN(C)C)c3c4c(sc3n2)CCCC4)n1 show?
Response: 9.54 µM

Request: Look up AC50: Cn1nccc1C(=O)NC1CCCc2c1cnn2-c1ccccc1F (centres undefined)
Response: 3.16 µM

Request: Recorded AC50 of C=CCSc1nsc(NC(=O)Nc2ccc(F)cc2)n1 , please.
Response: 3.4 µM

Request: I would be grateful if you could share the reported AC50 for COc1ccc(/C(C)=N/NC(=O)c2cccc(S(=O)(=O)N3CCCC3)c2)c(O)c1 .
Response: 3.8 µM

Request: Look at this compound and give its reported AC50. COc1ccc(O)c(/C=N/NC(=O)c2ccc(OCc3cccc(Br)c3)cc2)c1
Response: 19.8 µM

Request: Record request: AC50 value, item C=CCNC(=S)N/N=C(\C)c1ccccn1
Response: 1.22 µM

Request: Which AC50 value belongs to COc1ccc(CCNc2ncnc3sc(C)cc23)cc1OC ?
Response: 1.33 µM

Request: What AC50 value was documented for this compound, Cc1cccc(CNc2ncnc3ccc(-c4ccc5c(c4)OCCO5)cc23)c1 ?
Response: 7.27 µM

Request: Fill blank: measured AC50 of the compound CCCCCc1cc(=O)oc2c(C(CCN3CCCCC3)c3ccc4c(c3)OCO4)c(OC)cc(OC)c12 (centres undefined) is ____.
Response: 7.89 µM

Request: Which AC50 value belongs to COc1cc(OC)c2cc(C(=O)N/N=C/c3ccccc3O)[nH]c2c1 ?
Response: 8.48 µM

Request: // lookup AC50 for O=C(Nc1cccc(Cl)c1)Nc1nnc(CSCCOc2ccc(Cl)cc2)s1
Response: 5.39 µM

Request: Look at this compound and give its reported AC50. Cc1ccc(S(=O)(=O)/N=C2/C=C(Sc3ncn[nH]3)C(=O)c3ccccc32)cc1
Response: 8.08 µM
